B1: ZNF263 (parent)
chain: FAHSSNLLRHQRIHTGERPYKCPE

- Variants of: B1
- test-summary: protein stability index of a GFP-peptide fusion (GPS, HEK-293T) (PSI 1-6); higher = more stable;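 further: lentivirally expressed fusions sorted by FACS into six bins by GFP to DsRed ratio, PSI derived from sequencing read proportions per bin multiplied by bin number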
- measurement-parameters: c terminus: a fixed tail appended
Known protein stability index of a selection of variants

mutation-name | protein stability index
G16R | 1.57
L7Q | 3.21
R12Y | 2.1
A2W | 2.18
R18C | 2.23
Y20V | 3.48
Y20H | 3.23
N6A | 1.77
L8N | 2.8
H14P | 3.05
T15W | 1.6
G16C | 2.36
A2Q | 2.73
H3S | 2.22
R12Q | 3.09
K21W | 2.64
L7N | 2.93
E24Q | 2.33
H10E | 2.77
A2N | 3.34
F1D | 3.9
N6G | 2.21
R18G | 2.54
H3V | 1.86
L8W | 2.64
R18E | 3.36
Q11C | 3.7
C22F | 2.08
R9T | 2.9
P23D | 2.47
P23G | 2.82
H10A | 2.38
H3M | 2.41
R12E | 2.95
K21H | 2.49
R12T | 2.48
P19A | 2.54
L8T | 3.04
F1Y | 2.51
G16I | 2.22
C22G | 2.36
L7Y | 1.6
E24A | 1.89
A2H | 1.82
I13E | 3.23
R9V | 2.58

Cited source for all entries: the supplement of paper PMC10567573
